Catalogue of pKd readings, one per entry.
- Tested system: T1, hIL2Rg-his (Sino Biological, Catalog# 10555) (human, UniProt P31785 23-262)
- T1 construct: Bought; also called extracellular domain of hIL2Rg
- T1 sequence: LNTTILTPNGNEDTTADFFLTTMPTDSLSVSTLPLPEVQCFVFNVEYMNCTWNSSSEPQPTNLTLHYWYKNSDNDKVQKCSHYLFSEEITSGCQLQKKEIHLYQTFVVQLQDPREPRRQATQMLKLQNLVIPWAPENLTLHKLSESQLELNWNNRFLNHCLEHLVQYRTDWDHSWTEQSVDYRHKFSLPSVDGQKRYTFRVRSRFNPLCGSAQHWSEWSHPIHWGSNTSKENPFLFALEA
- Test summary: SPR Biacore T200; Mono-Fc VHH captured on Protein A chip, hIL2Rg-his analyte; 1:1 Langmuir fit
Scale for pKd: -log10 of concentration given in mol/L; no unit attached.

Binder	pKd
hIL-2Rg_VHH22 Mono-Fc VHH (Fc fusion, not shown: a dimerising Fc or GST) QVQLQESGGGLVQPGGSLRLSCTASGFSFSSYPMTWARQAPGKGLEWVSTIASDGGSTAYAASVEGRFTISRDNAKSTLYLQLNSLKTEDTAMYYCTKGYGDGTPAPGQGTQVTVSS	8.19
hIL-2Rg_VHH8 Mono-Fc VHH (Fc fusion, not shown: a dimerising Fc or GST) QVQLQESGGGSVQAGGSLRLSCVASGYTFSSYCMGWFRQAPGKEREGVAALGGGSTYYADSVKGRFTISQDNAKNTLYLQMNSLKPEDTAMYYCAAAWVACLEFGGSWYDLARYKHWGQGTQVTVSS	8.66
hIL-2Rg_VHH19 Mono-Fc VHH (Fc fusion, not shown: a dimerising Fc or GST) QVQLQESGGGSVQAGGSLRLSCTASGFTFDDREMNWYRQAPGNECELVSTISSDGSTYYADSVKGRFTISQDNAKNTVYLQMDSVKPEDTAVYYCAADFMIAIQAPGAGCWGQGTQVTVSS	8.62
hIL-2Rg_VHH21 Mono-Fc VHH (Fc fusion, not shown: a dimerising Fc or GST) QVQLQESGGGSVQAGGSLRLSCVASGYTSCMGWFRQAPGKEREAVATIYTRGRSIYYADSVKGRFTISQDNAKNTLYLQMNSLKPEDIAMYSCAAGGYSWSAGCEFNYWGQGTQVTVSS	7.76
hIL-2Rg_VHH15 Mono-Fc VHH (Fc fusion, not shown: a dimerising Fc or GST) QVQLQESGGGLVQPGGSLRLSCAASGFTFSSAHMSWVRQAPGKGREWIASIYSGGGTFYADSVKGRFTISRDNAKNTLYLQLNSLKAEDTAMYYCATNRLHYYSDDDSLRGQGTQVTVSS	7.59

[Q] Give pKd for hIL-2Rg_VHH20 Mono-Fc VHH (Fc fusion, not shown: a dimerising Fc or GST) QVQLQESGGGSVQAGGSLRLSCTASGFTFDDSDMGWYRQAPGNECELVSTISSDGSTYYADSVKGRFTISQDNAKNTVYLQMNSLKPEDTAVYYCAAEPRGYYSNYGGRRECNYWGQGTQVTVSS
[A] 7.85

Source: patent US20250019453A1
